Reference source: the supplement of paper PMC9112550

Answer each item with its documented shrunken log2 fold change.
system: Escherichia coli TOP10; test: shrunken log2 fold change of peptide-encoding DNA abundance (4.5 h post-induction vs induction); higher = less antimicrobial activity (less host growth inhibition); conditions: time post-induction: 4.5 h; library: site-saturation at positions 5, 18, 19, 20;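 note: peptides expressed intracellularly from a pBAD plasmid library in pooled LB shake-flask culture, induced with 0.3% L-arabinose, DNA abundance read by NGS, three biological replicates, DESeq2 with apeglm shrinkage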

Solved entries (count: 4):
>  <entry_sequence>
RRIRMRPPRLPRPRPRPIWIPRP

>  <measured_value>
0.14

$$$$
>  <entry_sequence>
RRIRKRPPRLPRPRPRPTEHPRP

>  <measured_value>
0.279

$$$$
>  <entry_sequence>
RRIRGRPPRLPRPRPRPTHKPRP

>  <measured_value>
0.854

$$$$
>  <entry_sequence>
RRIRWRPPRLPRPRPRPTPWPRP

>  <measured_value>
0.48

$$$$

List shrunken log2 fold change for every entry below, keeping the order given.
1. RRIRERPPRLPRPRPRPHYGPRP
2. RRIRDRPPRLPRPRPRPRHTPRP
3. RRIRGRPPRLPRPRPRPSNTPRP
4. RRIRSRPPRLPRPRPRPVVSPRP
5. RRIRQRPPRLPRPRPRPCVPPRP
6. RRIRQRPPRLPRPRPRPKAPPRP
7. RRIRTRPPRLPRPRPRPCYLPRP

Key:
-0.249
0.122
-0.023
0.151
-0.0509
0.653
-0.468
